biological target: T1, RSV F ectodomain stabilized in the postfusion conformation (F ΔFP), subtype B (Respiratory syncytial virus subtype B, UniProt P13843 26-109; P13843 147-524); test: BLI, IgG on AHQ sensor, 100 nM antigen
T1 construct: extracellular domain; trimer; also called Postfusion subtype B; postF subtype B
Quantity name: Kd (nM)
Numeric only. Scale: nM

# annotated cases, reported Kd shown
Binder | Quantity name | Output unit | Meas value
ADI-14507 (antibody, V domains shown, full-length IgG (yeast-expressed); also called Antibody Number 68; Ab# 68) VH: QITLKESGPTLVKPTQTLTLTCTLSGFSLSTPRMGVGWIRQPPGKALEWLALIDWDDDRRYSPSLKTRLTITKDTSKNQVVLRMTDMDPVDTGTYYCVHSDVYTTGGYYLYYFDYWGQGTLVTVSS VL: DIQVTQSPSSLSASVGDRVTITCRASQTIPSYLNWYQHKPGKAPQLLIYAASNLRSGVPPRFRGSGSGTDFTLTVSSLQPEDFATYFCQQSYSSPYTFGQGTKLEIK | Kd | nM | 0.413
ADI-14458 (antibody, V domains shown, full-length IgG (yeast-expressed); also called Antibody Number 21; Ab# 21) VH: QVQLVESGGGLVKPGGSLRLSCAASGFIFSNAWMSWVRQSPGKGLEWVGRIKTKTEGATTDHAAPLKGRFTISRDDSRNTLYLQMDSLTTEDTAVYFCTTGPPYSYFDSTGYSIVDYWGQGTLVTVSS VL: SYELTQPPAASGTPGQRVTISCSGSSSNIGSEYVLWYQQVPGTAPKLLIYNSHQRPSGVPDRISGSRSGTSASLAISGLRSEDEAHYYCASWDDSLSGPVFGGGTQLTVL | Kd | nM | 0.126
ADI-14461 (antibody, V domains shown, full-length IgG (yeast-expressed); also called Antibody Number 24; Ab# 24) VH: EVQLVESGGGVVQPGRSLRLSCAASGFTFSDHAMYWVRQAPGKGLEWVALISFDGRNIYYADSVKGRFTISRDNSKNTLYLQMNSLRAEDTAVYYCARDQWLVPDYWGQGTLVTVSS VL: LPVLTQPASVSGSPGQSITISCTGTSSDVGGYNYVSWYQQHPGNAPKLMIYEVSKRPSGVPDRFSGFKSGNTASLTVSGLQAEDEADYYCSSYAGSNSVFGTGTKLTVL | Kd | nM | 0.156

query: Given the binder ADI-14512 (antibody, V domains shown, full-length IgG (yeast-expressed); also called Antibody Number 73; Ab# 73) VH: EVQLVESGAEVKKPGSSVKVSCKVVGGSFSNYGISWVRQAPGQGPEWMGGIIPAFKTAKYAKKFEDRVTITADESTSTAYMEVSGLRSDDTALYYCARPERDFGHLKWLRSPFDYWGQGTLVTVSS VL: ETTLTQSPATLSVSPGERVTLSCRASQGVSINLAWYQQKPGQAPRLLIYGASTRATDIPARFSGSGSGTDFTLTISSLQSEDFAVYYCQQYNDWPPQLTFGPGTKVEIK , what is its reported Kd?
result: 0.587

query: Given the binder ADI-14439 (antibody, V domains shown, full-length IgG (yeast-expressed); also called Antibody Number 2; Ab# 2) VH: QVQLVQSGAEVKKPGSSVRVSCRASGVTLTTVAVNWVRQVPGQGPEWIGGILVGLGKVRLAQKFENRATLRADTSSNTAYMELSGLRFEDTAVYYCAIIDPQDCTAASCFWVNWLDPWGQGTLVTVSS VL: EIVLTQSPGTLTLSPGETATLSCRASQSVLSGYLAWYQQKPGQAPRLLIYAASTRATDIPARFTGSGSATDFTLTISRLEPQDFAVYYCQQYGSAPITFGQGTRLEIK , what is its reported Kd?
result: 16.2

query: Given the binder ADI-14454 (antibody, V domains shown, full-length IgG (yeast-expressed); also called Antibody Number 17; Ab# 17) VH: QVQLVQSGPTLVKPTQTLTLTCTFSGFSLSTRGVGVGWIRQPPGKALECLGFTYWDGDQFHSPSLKNRLTITKDTSKNQVVLRMTNMDPVDTATYFCVHSDLYDSGGYYLYYFDYWGQGTLVTVSS VL: DIQMTQSPSSLSASVGDRVTITCRASQTIASYLNWYQQRPGEAPKLLIYAASSLQSGVSSRFSGRGSGTDFTLTINILQPEDLATYFCQQAYSAPYTFGQGTKVEIK , what is its reported Kd?
result: 0.483

query: Given the binder ADI-14440 (antibody, V domains shown, full-length IgG (yeast-expressed); also called Antibody Number 3; Ab# 3) VH: QVQLVQSGAEVKKPGSSVKVSCKASGGTINNVAISWLRQAPGQGLEWLGGNIPGFGKVRYSQQFETRLTLTADVSSDTAYMVLTSLRSEDTAVYYCAIIDPQLCTRASCFWVNWLDPWGQGTTVTVSS VL: DIVMTQSPGTLSVSPGESAALSCGASESILSDSLAWYQHKPGQAPRLLIYGASSRAAGIPDRFSGSGSGTDFTLTISRLEPEDFAVYFCQQFGALPITFGQGTRLEIK , what is its reported Kd?
result: 2.39

query: Given the binder ADI-14494 (antibody, V domains shown, full-length IgG (yeast-expressed); also called Antibody Number 55; Ab# 55) VH: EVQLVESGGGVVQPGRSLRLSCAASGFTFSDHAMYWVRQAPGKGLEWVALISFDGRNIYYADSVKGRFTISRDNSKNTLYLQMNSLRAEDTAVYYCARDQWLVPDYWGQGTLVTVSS VL: QSALTQPASVSGSPGQSITISCTGTSSDVGGYNYVSWYQQHPGNAPKLMIYEVSKRPSGVPDRFSGFKSGNTASLTVSGLQAEDEADYYCSSYAGSNSVFGTGTKVTVL , what is its reported Kd?
result: 0.155

query: Given the binder ADI-14477 (antibody, V domains shown, full-length IgG (yeast-expressed); also called Antibody Number 39; Ab# 39) VH: EVQLVESGPTLVKPTQTLTLTCSLSGFSLTTRGVGVGWIRQPPGKAPECLGFVYWDDDNRYSPSLRGRLTISKDTSKNQVVLTLTNMDPLDTATYYCVHSDLYDRGGYYLFYFDDWGQGTLVTVSS VL: DIQVTQSPSSLSASVGDRVTITCRASQPIASYLNWYQQKPGQAPKLLIYAASMLQSGAPSKFSGRGSGTDFTLTITTLQPEDFATYYCQQSYTFPYTFGQGTKVEIK , what is its reported Kd?
result: 1.22

query: Given the binder ADI-14476 (antibody, V domains shown, full-length IgG (yeast-expressed); also called Antibody Number 38; Ab# 38) VH: QVQLVESGPTLVKPTQTLSLTCTFSGFSLTTRGVGVGWIRQPPGKALEWLGFTYWDGDDRYSPSLRNRVSIAKDTSKNQVVLTLTNMDPVDTATYFCVHSDRYDRGGYYLYFFDYWGPGTLVTVSS VL: DIRVTQSPSSLSASVGDRVSISCRASQTIASYVNWYQQRPGKAPQLLIFAASHLQTGVPSRFSGRGSGTDFTLTITSLQPEDFATYYCQQSYTSPYTFGQGTKVEIK , what is its reported Kd?
result: 9.12
